- ASSAY NOTES: Metabolic stability in human hepatic microsome
- Format: in vitro ADME
- STUDY CONDITIONS: microsomes, pH 7.4; human hepatic microsome, NADPH(+); read-out: CL NADPH(+)
Positions of bridges follow the written chain, without caps; N, C: chain ends. Non-standard residues stand in square brackets, D forms with d. Residues, ends and D or L forms follow the SMILES beside them. *: point of attachment. NMeF = CN[C@@H](Cc1ccccc1)C(=O)O; hPhe = N[C@@H](CCc1ccccc1)C(=O)O; NMeL = CN[C@@H](CC(C)C)C(=O)O; NMeV = CN[C@H](C(=O)O)C(C)C; NMeA = CN[C@@H](C)C(=O)O; Piperidide = C1CCN(*)CC1; Sar = CNCC(=O)O
MEASUREMENT TYPE: microsomal CLint at 1 uM (µL/min/mg)

• CC(C)C[C@@H]1NC(=O)[C@@H]2CCCN2C(=O)[C@H](Cc2ccccc2)N(C)C(=O)[C@H](C)N(C)C(=O)[C@H]([C@@H](C)O)NC(=O)[C@@H](C(C)C)NC(=O)C[C@@H](C(=O)N2CCCCC2)NC(=O)[C@H](CC(C)C)N(C)C(=O)[C@H](C)N(C)C(=O)[C@H](CCc2ccccc2)NC(=O)[C@H](C(C)C)N(C)C1=O [DP-732] ([dV]T[NMeA][NMeF]PL[NMeV][hPhe][NMeA][NMeL]D-Piperidide; lactam N-11) = 57
• C=C1CCC(=O)N[C@@H](CC(C)C)C(=O)N2CCC[C@H]2C(=O)N(C)[C@@H](C(C)C)C(=O)N[C@@H](Cc2ccccc2)C(=O)N(C)[C@@H](Cc2ccccc2)C(=O)N(C)[C@@H](CC(C)C)C(=O)N[C@@H](C)C(=O)N(C)[C@@H]([C@@H](C)CC)C(=O)N[C@H](C(=O)N2CCCCC2)Cc2cccc1c2 [DP-870] = 474
• CC(C)C[C@@H]1NC(=O)[C@H](CC(C)C)N(C)C(=O)[C@H](C)NC(=O)[C@H](C(C)C)N(C)C(=O)[C@H](Cc2ccccc2)NC(=O)CN(C)C(=O)[C@H]([C@@H](C)O)NC(=O)[C@H](C)N(C)C(=O)[C@H](CC(C)C)N(C)C(=O)[C@@H](C)NC(=O)C[C@@H](C(=O)N2CCCCC2)NC1=O [DP-95] ([dA][NMeL][NMeA]T[Sar]F[NMeV]A[NMeL]LD-Piperidide; lactam N-11) = 19

====

- ASSAY NOTES: Metabolic stability in human hepatic microsome
- Assay type: in vitro ADME
- STUDY CONDITIONS: microsomes, pH 7.4; human hepatic microsome, NADPH(+); read-out: CL NADPH(+)
Starred links: 1 amine or outer side, 2 acyl side, 3 side chain; linkers in the order of their positions; H or OH if unused. Positions of bridges follow the written chain, without caps; N, C: chain ends. Non-standard residues stand in square brackets, D forms with d. Residues, ends and D or L forms follow the SMILES beside them. *: point of attachment. Phe(3-(CH2)4CO) = O=C([C@H](Cc1cccc(CCCCC(=O)[*:3])c1)N[*:1])[*:2]; Met(O2) = CS(=O)(=O)CC[C@H](N)C(=O)O; NMeF = CN[C@@H](Cc1ccccc1)C(=O)O; NMeI = CC[C@H](C)[C@H](NC)C(=O)O; NMeβAla = CN(CCC(=O)[*:2])[*:1]; NMeL = CN[C@@H](CC(C)C)C(=O)O; NMeV = CN[C@H](C(=O)O)C(C)C; NMeA = CN[C@@H](C)C(=O)O; Piperidide = C1CCN(*)CC1; dNMeA = CN[C@H](C)C(=O)O; Sar = CNCC(=O)O; tBu = CC(C)(C)*
Lab note: class by microsomal CLint at 1 uM, see lo: < 20 µL/min/mg; med: ≥ 20 µL/min/mg and < 200 µL/min/mg; hi: ≥ 200 µL/min/mg

* CC[C@H](C)[C@H]1C(=O)N[C@@H]([C@@H](C)O)C(=O)N(C)CC(=O)N(C)[C@@H](CC(C)C)C(=O)N[C@H](C(=O)N2CCCCC2)Cc2cccc(c2)CCCCC(=O)N[C@@H](CC(C)C)C(=O)N(C)[C@@H](CC(C)C)C(=O)N(C)[C@@H](Cc2ccccc2)C(=O)N[C@@H](C)C(=O)N(C)[C@@H](Cc2ccccc2)C(=O)N1C [DP-857] (L[NMeL][NMeF]A[NMeF][NMeI]T[Sar][NMeL][Phe(3-(CH2)4CO)]-Piperidide; lactam N-10) | hi
* CC(C)C[C@H]1C(=O)N(C)[C@@H](C(C)C)C(=O)N(C)[C@@H](C)C(=O)N[C@H](C(=O)N2CCCCC2)CC(=O)N(C)CCC(=O)N[C@@H]([C@@H](C)O)C(=O)N[C@@H](C)C(=O)N(C)[C@@H](C)C(=O)N(C)[C@@H](Cc2ccccc2)C(=O)N(C)[C@@H](CC(C)C)C(=O)N[C@@H](Cc2ccccc2)C(=O)N1C [DP-473] ([NMeβAla]TA[NMeA][NMeF][NMeL]F[NMeL][NMeV][NMeA]D-Piperidide; lactam N-11) | med
* CC(C)C[C@@H]1NC(=O)[C@H](CC(C)C)N(C)C(=O)[C@H](CC(C)C)N(C)C(=O)[C@H](CC(C)C)NC(=O)[C@H](Cc2ccccc2)N(C)C(=O)[C@H](CCS(C)(=O)=O)NC(=O)[C@H](CC(C)C)N(C)C(=O)[C@H](Cc2ccccc2)NC(=O)[C@H](C)NC(=O)C[C@@H](C(=O)N(C)[C@@H](Cc2ccccc2)C(=O)N[C@@H](C)C(=O)N2CCCCC2)NC1=O [DP-607] (AF[NMeL][Met(O2)][NMeF]L[NMeL][NMeL]LD[NMeF]A-Piperidide; lactam N-10) | lo
* CC(C)C[C@@H]1NC(=O)[C@H](CC(C)C)N(C)C(=O)[C@@H](C(C)C)NC(=O)C[C@@H](C(=O)N2CCCCC2)NC(=O)[C@H](CC(C)C)N(C)C(=O)[C@H](Cc2ccccc2)N(C)C(=O)[C@H](C)N(C)C(=O)[C@H]([C@@H](C)O)NC(=O)[C@H](Cc2ccccc2)N(C)C1=O [DP-264] ([dV][NMeL]L[NMeF]T[NMeA][NMeF][NMeL]D-Piperidide; lactam N-9) | med
* CC[C@H](C)[C@@H]1NC(=O)[C@H](C)N(C)C(=O)[C@H](Cc2ccccc2)N(C)C(=O)[C@@H](C)N(C)C(=O)C[C@@H](C(=O)N(C)[C@@H](Cc2ccccc2)C(=O)N(C)[C@@H](Cc2ccccc2)C(=O)N[C@@H](C)C(=O)N2CCCCC2)NC(=O)[C@H](C)N(C)C(=O)[C@H]([C@@H](C)O)NC(=O)[C@H](C)N(C)C(=O)[C@H](CC(C)C)N(C)C(=O)[C@H](C)N(C)C1=O [DP-455] ([dNMeA][NMeF][NMeA]I[NMeA][NMeL][NMeA]T[NMeA]D[NMeF][NMeF]A-Piperidide; lactam N-10) | lo
* CC(C)[C@@H]1NC(=O)[C@H](Cc2ccccc2)N(C)C(=O)[C@H](C)N(C)C(=O)[C@H]([C@@H](C)O)NC(=O)[C@H](C)N(C)C(=O)CNC(=O)[C@H](Cc2ccccc2)NC(=O)[C@@H](C)N(C)C(=O)C[C@@H](C(=O)N(C)[C@@H](Cc2ccccc2)C(=O)N(C)[C@@H](Cc2ccccc2)C(=O)N[C@@H](C)C(=O)N2CCCCC2)NC(=O)[C@H](C(C)C)N(C)C1=O [DP-504] ([dNMeA]FG[NMeA]T[NMeA][NMeF]V[NMeV]D[NMeF][NMeF]A-Piperidide; lactam N-10) | hi
* CC[C@H](C)[C@H]1C(=O)N[C@@H](COC(C)(C)C)C(=O)N[C@H](C(=O)N2CCCCC2)CC(=O)N(C)[C@@H](C)C(=O)N(C)[C@@H](Cc2ccccc2)C(=O)N(C)CC(=O)N(C)[C@@H](CC(C)C)C(=O)N[C@@H]([C@@H](C)O)C(=O)N(C)[C@@H](C)C(=O)N(C)[C@@H](CC(C)C)C(=O)N1C [DP-138] ([NMeA][NMeF][Sar][NMeL]T[NMeA][NMeL][NMeI]S(tBu)D-Piperidide; lactam N-10) | med
* CC[C@H](C)[C@@H]1NC(=O)[C@H](Cc2ccccc2)N(C)C(=O)[C@H](Cc2ccccc2)NC(=O)[C@H](CC(C)C)N(C)C(=O)[C@H](CC(C)C)NC(=O)[C@H](C)NC(=O)C[C@@H](C(=O)N2CCCCC2)NC(=O)[C@H]([C@@H](C)O)NC(=O)[C@H](C)N(C)C1=O [DP-86] (AL[NMeL]F[NMeF]I[NMeA]TD-Piperidide; lactam N-9) | hi

====

- ASSAY NOTES: Metabolic stability in human hepatic microsome
- Format: in vitro ADME
- STUDY CONDITIONS: microsomes, pH 7.4; human hepatic microsome, NADPH(+); read-out: CL NADPH(+)
Starred links: 1 amine or outer side, 2 acyl side, 3 side chain; linkers in the order of their positions; H or OH if unused. Positions of bridges follow the written chain, without caps; N, C: chain ends. Non-standard residues stand in square brackets, D forms with d. Residues, ends and D or L forms follow the SMILES beside them. *: point of attachment. Phe(4-CF3) = N[C@@H](Cc1ccc(C(F)(F)F)cc1)C(=O)O; NMePhe(3-Cl) = CN[C@@H](Cc1cccc(Cl)c1)C(=O)O; NEtPhe = CCN[C@@H](Cc1ccccc1)C(=O)O; NMeF = CN[C@@H](Cc1ccccc1)C(=O)O; NMeI = CC[C@H](C)[C@H](NC)C(=O)O; NMeβAla = CN(CCC(=O)[*:2])[*:1]; NMeL = CN[C@@H](CC(C)C)C(=O)O; NMeV = CN[C@H](C(=O)O)C(C)C; NMeA = CN[C@@H](C)C(=O)O; Piperidide = C1CCN(*)CC1; dNMeA = CN[C@H](C)C(=O)O; β3hA = C[C@H](N)CC(=O)O; Sar = CNCC(=O)O; tBu = CC(C)(C)*
MEASUREMENT TYPE: log10 of microsomal CLint at 1 uM (log10 of the value in µL/min/mg)

* CC(C)C[C@H]1C(=O)N(C)[C@@H](CC(C)C)C(=O)N[C@@H]([C@@H](C)O)C(=O)N(C)[C@@H](Cc2cccc(Cl)c2)C(=O)NCC(=O)N(C)[C@@H](C(C)C)C(=O)N[C@@H](Cc2ccc(C(F)(F)F)cc2)C(=O)N[C@@H](C)CC(=O)N(C)CCC(=O)N[C@@H](COC(C)(C)C)C(=O)N1C [DP-809] (cyclo(G[NMeV][Phe(4-CF3)][β3hA][NMeβAla]S(tBu)[NMeL][NMeL]T[NMePhe(3-Cl)])) | 2.30
* CC[C@H](C)[C@H]1C(=O)N[C@H](C(=O)N2CCCCC2)CC(=O)N[C@@H](C)C(=O)N[C@@H]([C@@H](C)O)C(=O)N(C)[C@@H](Cc2ccccc2)C(=O)N[C@@H](CC(C)C)C(=O)N2CCC[C@H]2C(=O)N(C)[C@@H](C(C)C)C(=O)N[C@@H](Cc2ccccc2)C(=O)N(C)CC(=O)N(C)[C@@H](CC(C)C)C(=O)N[C@@H](C)C(=O)N1C [DP-27] (AT[NMeF]LP[NMeV]F[Sar][NMeL]A[NMeI]D-Piperidide; lactam N-12) | 1.49
* CC(C)C[C@H]1C(=O)N(C)[C@@H](Cc2ccccc2)C(=O)N[C@@H]([C@@H](C)O)C(=O)N(C)[C@@H](C)C(=O)N(C)[C@@H](CC(C)C)C(=O)N[C@@H](C(C)C)C(=O)N(C)[C@@H](CC(C)C)C(=O)N[C@H](C(=O)N(C)[C@@H](Cc2ccccc2)C(=O)N[C@@H](C)C(=O)N2CCCCC2)CC(=O)N(C)CC(=O)N1C [DP-202] ([Sar][NMeL][NMeF]T[NMeA][NMeL]V[NMeL]D[NMeF]A-Piperidide; lactam N-9) | 2.13
* CC(C)C[C@H]1C(=O)N[C@@H](Cc2ccccc2)C(=O)N[C@@H](COC(C)(C)C)C(=O)N(C)[C@@H](CC(C)C)C(=O)N(C)[C@@H](CC(C)C)C(=O)N[C@@H]([C@@H](C)O)C(=O)N[C@H](C(=O)N2CCCCC2)CC(=O)N(C)CCC(=O)N(C)[C@@H](Cc2ccccc2)C(=O)NCC(=O)N1C [DP-426] ([NMeβAla][NMeF]G[NMeL]FS(tBu)[NMeL][NMeL]TD-Piperidide; lactam N-10) | 2.74
* CC[C@H](C)[C@H]1C(=O)N[C@@H]([C@@H](C)O)C(=O)N(C)CC(=O)N(C)[C@@H](CC(C)C)C(=O)N[C@H](C(=O)N2CCCCC2)CC(=O)N(C)[C@H](C)C(=O)N[C@@H](CC(C)C)C(=O)N(C)[C@@H](CC(C)C)C(=O)N(CC)[C@@H](Cc2ccccc2)C(=O)N[C@@H](C)C(=O)N(C)[C@@H](Cc2ccccc2)C(=O)N1C [DP-633] ([dNMeA]L[NMeL][NEtPhe]A[NMeF][NMeI]T[Sar][NMeL]D-Piperidide; lactam N-11) | 1.99
